B1: LINE1-full (parent)
chain: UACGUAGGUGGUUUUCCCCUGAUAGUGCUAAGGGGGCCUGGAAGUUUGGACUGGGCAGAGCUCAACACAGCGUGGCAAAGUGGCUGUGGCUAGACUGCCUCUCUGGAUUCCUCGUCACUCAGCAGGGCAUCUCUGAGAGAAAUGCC

- Variants of: B1
- test: self-cleavage, relative activity (ratio to wild type); higher = more cleavage; in vitro, sequencing; the parent is a self-cleaving ribozyme
readout.name: self-cleavage

>>> obs_value("UACGUAGGUGGUUUUUCCCUGAUAGUGCUAAAGGGGCCUGGAAGUUUGGACUGGGCAGAGCUCAACACAGCGUGGCAAAGUGGCUGUGGCUAGACUGCCUCUCUGGAUUCCUCGUCACUCAGCAGGGCAUCUCUGAGAGAAAUGCC [C16U G32A]")
1
>>> obs_value("UACGUAGGUAGUUUUCCCCUGAUAGUGCUAAGGGGGCCUGGAAGUUUGGACUGGGCAGAGCUCAACACAGCGUGGCAAAGUGGCCGUGGCUAGACUGCCUCUCUGGAUUCCUCGUCACUCAGCAGGGCAUCUCUGAGAGAAAUGCC [G10A U85C]")
0.09
>>> obs_value("UACGUAGGUGGUUUUCCCCUGAUAGUGCUAAGGGGGCCUGGAAGAUUGGACUGGGCAGAGCUCAACACAGCGCGGCAAAGUGGCUGUGGCUAGACUGCCUCUCUGGAUUCCUCGUCACUCAGCAGGGCAUCUCUGAGAGAAAUGCC [U45A U73C]")
1.32
>>> obs_value("UACGUAGGUGGUUUUCCCCUGAUAGUGCUAAGGGGGCCUGGAAGUUUGGGCUGGGCAGAGCUCAACACAGCGUGGCAAAGUGGCUGUGGCUAGACUGCCUCUCCGGAUUCCUCGUCACUCAGCAGGGCAUCUCUGAGAGAAAUGCC [A50G U104C]")
1.08
>>> obs_value("UACGUAGGUGGUUUUCCCCUGAUAGUGCUAAGGGUGCCUGGAAGUAUGGACUGGGCAGAGCUCAACACAGCGUGGCAAAGUGGCUGUGGCUAGACUGCCUCUCUGGAUUCCUCGUCACUCAGCAGGGCAUCUCUGAGAGAAAUGCC [G35U U46A]")
1.07
>>> obs_value("UACGUAGGUGGAUUUCCCCUGAUAGUGCUAAGGGGGCCUGGAAGUUUGGACUGGGCAGAGCUCAACACAGCGUGGCAAAGUGGCUGUGGCUAGACUGCCUCUCUGGAUUCCUCGUCACUCAGCAGGGCAUCUCCGAGAGAAAUGCC [U12A U134C]")
0.73
>>> obs_value("UACGUAGGUGGUUUUCCUCUGAUAGUGCUAAGGGGGCCUGGAAGUUUGGACAGGGCAGAGCUCAACACAGCGUGGCAAAGUGGCUGUGGCUAGACUGCCUCUCUGGAUUCCUCGUCACUCAGCAGGGCAUCUCUGAGAGAAAUGCC [C18U U52A]")
1.54
>>> obs_value("UACGUAGGUGGUUUUCCCCUGAUAGUGCUAAGGGGGCCUGGAAGUUUGGACUGGGCAGAGCUCAACACAGCGUGGCAAAGAGGCUGUGGCUAGACUGCCUCUUUGGAUUCCUCGUCACUCAGCAGGGCAUCUCUGAGAGAAAUGCC [U81A C103U]")
0.63
>>> obs_value("UACGUAUGUGGUUUUCCCCUGAUAGUGCUAAGGGGGCCUGGAAGUUUGGACUGGGCAGAGCUCAACACAGCGUGGCAAAGUGGCUGUGGCUAGACUGCCUCUCUGGAUUCCCCGUCACUCAGCAGGGCAUCUCUGAGAGAAAUGCC [G7U U112C]")
1.15
>>> obs_value("UACGUAGGUGGUUUUCCCCUGAUAGUGCUAAGGGGGCCUGGAAGUUUGGACUGGGCAGAGCUCAACACGGCGUGGCAAAGUGGCUGUGGCUAGACUGCCUCUCUGGAUUCCUCGUCACUCAGCAUGGCAUCUCUGAGAGAAAUGCC [A69G G125U]")
0.3
>>> obs_value("CACGUAGGUGGUUUUCCCCUGAUAGUGCUAAGGGGGCCUGGGAGUUUGGACUGGGCAGAGCUCAACACAGCGUGGCAAAGUGGCUGUGGCUAGACUGCCUCUCUGGAUUCCUCGUCACUCAGCAGGGCAUCUCUGAGAGAAAUGCC [U1C A42G]")
0.92
